Below, each entry is listed alongside its reported EC50 (read off the curve).
Biological target: T1, human IFP35 protein (human, UniProt P80217 1-286, limits assumed)
T1 construct: also called interferon-induced protein 35; IFI35
T1 chain: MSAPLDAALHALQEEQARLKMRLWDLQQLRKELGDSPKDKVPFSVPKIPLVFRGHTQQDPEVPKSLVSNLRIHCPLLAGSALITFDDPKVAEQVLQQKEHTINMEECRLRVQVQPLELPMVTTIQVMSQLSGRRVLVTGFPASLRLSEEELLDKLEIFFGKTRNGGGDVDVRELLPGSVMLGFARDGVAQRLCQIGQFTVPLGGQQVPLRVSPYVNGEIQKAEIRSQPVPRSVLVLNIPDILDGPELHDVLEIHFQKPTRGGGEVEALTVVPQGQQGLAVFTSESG
Assay: ELISA (OD450) on antigen IFP35

// below: answered binders
- AE001-9 (antibody, human IgG1, V domains shown, Human IgG1; CDR mutant of AE001-H3+L3; also called AE001-6Hc + 9Lc; AE001-6HC + 9LC) VH: QVQLVQSGAEVKKPGASVKVSCKASGYTFTNYGMNWVRQAPGQGLEWMGWINTYTGEPTVAQKFQGRFTFTLDTSTSTAYLELSSLRNEDTAVYFCARYGYSWAMDYWGQGTSVTVSS VL: DIQMTQSPSSLSASVGDRVTITCQASSSVSYMHWYQQKPGKAPKRLIYDTSKLASGVPSRFSGSGSGTDYTLTISSLQPEDIATYYCQQWSPRPPITFGAGTKLEIK: ~0.2 µg/mL
- AE001-8 (antibody, human IgG1, V domains shown, Human IgG1; CDR mutant of AE001-H3+L3; also called AE001-6Hc + 8Lc; AE001-6HC + 8LC) VH: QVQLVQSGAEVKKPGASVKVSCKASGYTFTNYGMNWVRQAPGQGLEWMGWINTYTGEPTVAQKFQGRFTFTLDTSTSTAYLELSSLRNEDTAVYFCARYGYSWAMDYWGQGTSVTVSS VL: DIQMTQSPSSLSASVGDRVTITCQASSSVSYMHWYQQKPGKAPKRLIYDTSKLASGVPSRFSGSGSGTDYTLTISSLQPEDIATYYCQQWSPLPPITFGAGTKLEIK: ~0.2 µg/mL

Consider the record given below.
Lab note: AE001-7 (antibody, human IgG1, V domains shown, Human IgG1; CDR mutant of AE001-H3+L3; also called AE001-6Hc + 7Lc; AE001-6HC + 7LC) VH: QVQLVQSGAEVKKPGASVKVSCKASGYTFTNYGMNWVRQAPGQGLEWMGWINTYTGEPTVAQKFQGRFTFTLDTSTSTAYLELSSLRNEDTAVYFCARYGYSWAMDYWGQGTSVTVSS VL: DIQMTQSPSSLSASVGDRVTITCQASSSVSYMHWYQQKPGKAPKRLIYDTSKLASGVPSRFSGSGSGTDYTLTISSLQPEDIATYYCQQWSSNSWSTFGAGTKLEIK gave EC50 (read off the curve) of ~0.2 µg/mL

Source listed as patent US12473352.
